The reported numbers originate from ChEMBL document CHEMBL3351320.

- target_entity: hERG (KCNH2) (Homo sapiens, UniProt Q12809)
- Sequence (Q12809 whole entry): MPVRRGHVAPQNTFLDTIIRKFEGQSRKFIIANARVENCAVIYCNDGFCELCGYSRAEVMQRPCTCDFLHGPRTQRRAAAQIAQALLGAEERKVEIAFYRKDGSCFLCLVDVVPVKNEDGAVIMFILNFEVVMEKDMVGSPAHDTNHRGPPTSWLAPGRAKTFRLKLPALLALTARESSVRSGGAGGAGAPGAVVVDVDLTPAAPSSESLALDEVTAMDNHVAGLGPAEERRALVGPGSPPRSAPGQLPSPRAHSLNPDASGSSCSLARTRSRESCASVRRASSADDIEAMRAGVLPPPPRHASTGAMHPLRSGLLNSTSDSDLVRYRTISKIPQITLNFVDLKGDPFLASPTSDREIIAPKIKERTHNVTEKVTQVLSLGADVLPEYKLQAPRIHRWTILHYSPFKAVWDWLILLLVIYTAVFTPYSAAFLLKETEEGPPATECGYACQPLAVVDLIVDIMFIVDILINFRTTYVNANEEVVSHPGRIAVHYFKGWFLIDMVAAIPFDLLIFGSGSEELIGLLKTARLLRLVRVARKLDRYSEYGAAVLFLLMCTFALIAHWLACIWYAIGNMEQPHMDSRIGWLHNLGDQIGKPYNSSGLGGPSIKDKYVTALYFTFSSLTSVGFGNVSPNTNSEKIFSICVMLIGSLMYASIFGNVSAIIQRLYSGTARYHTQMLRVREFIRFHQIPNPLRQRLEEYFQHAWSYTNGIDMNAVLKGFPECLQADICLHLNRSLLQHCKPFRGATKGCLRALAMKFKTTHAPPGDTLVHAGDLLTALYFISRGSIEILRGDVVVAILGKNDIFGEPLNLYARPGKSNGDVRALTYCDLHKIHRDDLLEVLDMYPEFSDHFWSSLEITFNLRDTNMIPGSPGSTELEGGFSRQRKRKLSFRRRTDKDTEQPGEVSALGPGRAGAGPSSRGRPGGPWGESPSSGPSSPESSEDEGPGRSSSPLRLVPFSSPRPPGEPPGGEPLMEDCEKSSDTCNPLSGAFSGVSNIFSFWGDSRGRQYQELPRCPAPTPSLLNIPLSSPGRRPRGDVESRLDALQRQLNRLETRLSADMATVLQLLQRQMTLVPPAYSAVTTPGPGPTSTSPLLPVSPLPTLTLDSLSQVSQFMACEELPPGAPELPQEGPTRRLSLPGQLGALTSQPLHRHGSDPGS
- protocol_notes: Inhibition of human ERG expressed in CHO cells at 10 uM by Rb efflux assay
- Type: cell-based
- recorded_conditions: CHO cells expressing human ERG
Assign inhibition at 10 µM to each entry below.
Just the number please, in %, no unit attached.

Param item: O=C(O)c1ccc(CCNCC(=O)N2CCc3ccccc3C2C2CCCCC2)cc1 (centres undefined) ; param system: hERG (KCNH2) (Homo sapiens, UniProt Q12809); output inhibition at 10 µM: 9

Param item: O=C(CNCCc1ccccc1O)N1CCc2ccccc2C1C1CCCCC1 (centres undefined) ; param system: hERG (KCNH2) (Homo sapiens, UniProt Q12809); output inhibition at 10 µM: 54.4

Param item: COC(=O)c1ccc(CCNCC(=O)N2CCc3ccccc3C2C2CCCCC2)cc1 (centres undefined) ; param system: hERG (KCNH2) (Homo sapiens, UniProt Q12809); output inhibition at 10 µM: 71.7

Param item: O=C(CNCCc1ccccc1)N1CCc2ccccc2C1C1CCCCC1 (centres undefined) ; param system: hERG (KCNH2) (Homo sapiens, UniProt Q12809); output inhibition at 10 µM: 57.8
